system: ScBbc1
measurement.notes: SPOT peptide array binding signal intensity (averaged, normalized) (arbitrary units (background-subtracted, floor 0; scale differs between SH3 domains)); higher = stronger binding of the SH3 domain to the peptide
The following binders are listed with their measured SPOT peptide array binding signal intensity values.
readout.name: SPOT peptide array binding signal intensity

binder | result
PPIPIVPSSPAPPLP | ≤ 0
NNFYRPLLRSVLVLL | 0.75
PPPPPPPPPPPLPQS | 1.25
MPAPPPPPPPPPGAF | ≤ 0
YRRKSIPFAPHQITA | 9.25
PKMLPIPSKPTLFDL | 0.5
IVNKPLPPLPVAGSS | 0.25
DGNEEKPLLPTRPNK | 306
GRLRPKRIAPWHLIQ | 24.5
VKPRQLFPIPLNKVD | ≤ 0
GTIARPLFLVVLFFI | ≤ 0
RPPRPPPKPLHLRTE | 57.5
